Tested on: U87MG.ΔEGFR cells
Experiment: Resazurin reduction assay (RRA), cytotoxicity
Type: cell-based, human
Settings: Homo sapiens; U87MG.ΔEGFR, 72 h
pIC50: −log10 of the molar value.
property label: pIC50

compound	result qualifier	reading
COc1cc([C@H]2Oc3c(OC)cc4ccc(=O)oc4c3O[C@@H]2CO)cc(OC)c1O	<	4.00
CC(C)(O)[C@@H](O)Cc1cn([C@@H]2O[C@H](CO)[C@@H](O)[C@H](O)[C@H]2O)c2ccccc12	<	4.00
O=c1ccc2nccc3c4ccccc4n1c23	=	4.68
CC(C)=CC(=O)c1c[nH]c2ccccc12	=	4.44
C[C@@H](O)C1CCC2C3CC=C4C[C@@H](O[C@@H]5OC[C@H](O)[C@H](O)[C@H]5O)CC[C@]4(C)C3CC[C@@]21C (stereo partly shown)	<	4.00
C[C@@H](O)C1CCC2C3CC=C4C[C@@H](O[C@@H]5OC[C@H](O)[C@H](O)[C@H]5O[C@@H]5O[C@H](CO)[C@@H](O)[C@H](O)[C@H]5O)CC[C@]4(C)C3CC[C@@]21C (stereo partly shown)	=	4.55
COc1cc([C@H]2Oc3cc(-c4cc(=O)c5c(O)cc(O)cc5o4)ccc3O[C@@H]2CO)ccc1O	=	5.27
